Every entry's value here was drawn from the kinase profiling compilation of Christmann-Franck et al. (2016).

Kindly state residual activity for each of the entries shown.
biological target: CSNK1G3 (human); assay: radiometric filter-binding kinase assay, Kinase HotSpot; settings: compound 0.5 µM; ATP 10 µM
Give bare numbers, in %.

# compound, residual activity [%]
data = [
    ("CC[n+]1c(/C=C/N(C)c2ccccc2)n(-c2ccccc2)c2ccc(-c3nc4ccccc4s3)cc21", 92.4),
]

Please state, for each entry, its recorded residual activity.
1. O=C1NC(=O)/C(=C/c2ccc3c(c2)OC(F)(F)O3)S1
2. CC#CC(=O)Nc1cc2c(Nc3ccc(F)c(Cl)c3)ncnc2cn1
3. COc1ccc2c(c[n+](C)c3c4cc5c(cc4ccc23)OCO5)c1OC
4. c1ccc(-c2n[nH]c3c2oc2ccccc23)cc1

[91.4, 111, 92.5, 88.5]

Please state, for each entry, its recorded residual activity.
1. O=S(=O)(c1cccc2cnccc12)N1CCCNCC1
2. O=C1Nc2ccc(Cl)cc2/C1=C/c1cc(Cl)c(O)c(Cl)c1

85
93

Please state, for each entry, its recorded residual activity.
1. CO[C@H]1CC2CC[C@@H](C)[C@@](O)(O2)C(=O)C(=O)N2CCCC[C@H]2C(=O)OC([C@H](C)C[C@@H]2CC[C@@H](O)[C@H](OC)C2)CC(=O)[C@H](C)/C=C(\C)[C@@H](O)[C@@H](OC)C(=O)[C@H](C)C[C@H](C)/C=C/C=C/C=C/1C (some centres undefined)
2. CNc1cc2c(Nc3cccc(Br)c3)ncnc2cn1

108
86.3

----------
target: UniProtKB P49760; test: radiometric filter-binding kinase assay, Kinase HotSpot; conditions: compound 0.5 µM; ATP 10 µM
Sequence (P49760 whole entry, looked up): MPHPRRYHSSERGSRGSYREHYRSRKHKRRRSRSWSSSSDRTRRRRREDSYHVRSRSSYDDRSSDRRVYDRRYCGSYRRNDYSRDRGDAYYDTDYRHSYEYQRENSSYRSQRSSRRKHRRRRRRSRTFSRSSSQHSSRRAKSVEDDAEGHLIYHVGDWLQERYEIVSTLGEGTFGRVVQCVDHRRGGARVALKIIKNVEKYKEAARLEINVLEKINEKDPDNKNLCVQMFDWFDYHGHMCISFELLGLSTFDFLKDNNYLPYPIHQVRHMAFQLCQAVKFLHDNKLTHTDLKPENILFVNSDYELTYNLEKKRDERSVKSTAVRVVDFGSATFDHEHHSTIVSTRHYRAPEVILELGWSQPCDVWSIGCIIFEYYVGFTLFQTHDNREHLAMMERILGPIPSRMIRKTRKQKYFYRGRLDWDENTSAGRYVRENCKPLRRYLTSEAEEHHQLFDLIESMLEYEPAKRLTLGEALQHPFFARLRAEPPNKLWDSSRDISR
property name: residual activity (%)
Give bare numbers, in %.

Please state, for each entry, its recorded residual activity.
1. CC(C)N(CCC(=O)c1ccc2ccccc2c1)Cc1ccccc1
2. CNC(=O)c1cc(Oc2ccc(NC(=O)Nc3ccc(Cl)c(C(F)(F)F)c3)cc2)ccn1

1: 96.3; 2: 92.8

Please state, for each entry, its recorded residual activity.
1. CCN(CC)C(=O)c1ccc(Nc2nc(OCC3CCCCC3)c3nc[nH]c3n2)cc1
2. CNc1cc2c(Nc3cccc(Br)c3)ncnc2cn1
3. CCC(=O)Nc1ccc2ncnc(Nc3cccc(Br)c3)c2c1
4. COc1cc2ncnc(Nc3cccc(Cl)c3)c2cc1OC
5. O=S(=O)(c1cccc2cnccc12)N1CCCNCC1

1. 40.6
2. 88.3
3. 101
4. 89.6
5. 95.1

Please state, for each entry, its recorded residual activity.
1. Oc1cccc(-c2nc(N3CCOCC3)c3oc4ncccc4c3n2)c1
2. CC(=O)c1ccc(N2CCOCC2)cc1O
3. COc1ccc2c(c[n+](C)c3c4cc5c(cc4ccc23)OCO5)c1OC

88
102
90.6

----------
molecular target: ROCK2 (human) (UniProt O75116); experiment: radiometric filter-binding kinase assay, Kinase HotSpot; settings: compound 0.5 µM; ATP 10 µM
Sequence (O75116 whole entry, looked up): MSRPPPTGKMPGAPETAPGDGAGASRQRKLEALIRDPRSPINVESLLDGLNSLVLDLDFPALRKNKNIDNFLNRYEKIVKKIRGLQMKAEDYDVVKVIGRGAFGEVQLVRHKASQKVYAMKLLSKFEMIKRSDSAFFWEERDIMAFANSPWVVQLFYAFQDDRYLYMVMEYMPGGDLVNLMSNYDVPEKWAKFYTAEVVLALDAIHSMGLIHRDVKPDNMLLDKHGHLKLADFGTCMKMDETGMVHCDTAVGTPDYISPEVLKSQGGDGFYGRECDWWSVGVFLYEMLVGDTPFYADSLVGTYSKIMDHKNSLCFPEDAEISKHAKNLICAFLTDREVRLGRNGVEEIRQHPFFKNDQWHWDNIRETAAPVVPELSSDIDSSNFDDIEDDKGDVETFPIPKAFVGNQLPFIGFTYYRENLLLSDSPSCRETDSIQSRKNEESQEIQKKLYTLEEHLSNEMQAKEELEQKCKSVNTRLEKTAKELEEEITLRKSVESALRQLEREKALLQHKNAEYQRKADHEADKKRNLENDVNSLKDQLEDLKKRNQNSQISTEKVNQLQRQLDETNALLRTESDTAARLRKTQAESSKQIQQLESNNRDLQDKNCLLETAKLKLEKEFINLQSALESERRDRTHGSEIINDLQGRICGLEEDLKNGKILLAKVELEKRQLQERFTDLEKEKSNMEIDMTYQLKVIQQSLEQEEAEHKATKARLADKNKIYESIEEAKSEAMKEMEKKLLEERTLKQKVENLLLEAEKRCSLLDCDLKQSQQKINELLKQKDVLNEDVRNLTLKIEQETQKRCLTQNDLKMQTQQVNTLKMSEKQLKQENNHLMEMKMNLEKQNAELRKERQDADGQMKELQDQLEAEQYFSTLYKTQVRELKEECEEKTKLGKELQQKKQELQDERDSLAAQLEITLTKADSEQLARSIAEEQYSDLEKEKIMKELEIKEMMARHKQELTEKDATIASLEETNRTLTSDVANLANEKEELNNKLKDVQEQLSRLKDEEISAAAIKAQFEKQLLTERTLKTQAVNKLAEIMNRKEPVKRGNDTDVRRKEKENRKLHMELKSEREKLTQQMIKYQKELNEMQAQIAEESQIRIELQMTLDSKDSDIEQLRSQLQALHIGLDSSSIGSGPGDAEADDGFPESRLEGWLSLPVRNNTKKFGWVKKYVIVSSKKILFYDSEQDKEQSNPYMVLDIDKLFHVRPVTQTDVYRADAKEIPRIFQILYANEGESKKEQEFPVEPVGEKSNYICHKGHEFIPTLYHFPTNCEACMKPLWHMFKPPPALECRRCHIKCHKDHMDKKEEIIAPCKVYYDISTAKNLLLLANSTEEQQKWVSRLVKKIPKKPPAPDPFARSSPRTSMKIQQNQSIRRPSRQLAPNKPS
Short version: residual activity at least 90% is Satisfied, less is Not satisfied.

Check out these entries, answers already filled in.
# entry smiles, tested system, category label
data = [
    ("CC[n+]1c(/C=C/N(C)c2ccccc2)n(-c2ccccc2)c2ccc(-c3nc4ccccc4s3)cc21", "ROCK2 (human) (UniProt O75116)", "Satisfied"),
    ("O=C1NC(=O)c2c1c1c3ccccc3n3c1c1c2c2ccccc2n1C1CCC3O1", "ROCK2 (human) (UniProt O75116)", "Not satisfied"),
    ("CCOC(=O)c1c(C)[nH]c(/C=C2\\C(=O)Nc3ccccc32)c1C", "ROCK2 (human) (UniProt O75116)", "Satisfied"),
    ("Cc1[nH]c(/C=C2\\C(=O)Nc3ccc(S(=O)(=O)N(C)c4cccc(Cl)c4)cc32)c(C)c1C(=O)N1CCN(C)CC1", "ROCK2 (human) (UniProt O75116)", "Not satisfied"),
]

Would you say c1ccc(-c2n[nH]c3c2oc2ccccc23)cc1 shows residual activity at minimum 90%?
Not satisfied

Would you say Oc1cccc(-c2nc(N3CCOCC3)c3oc4ncccc4c3n2)c1 shows residual activity at minimum 90%?
Satisfied

Would you say N#CC(C#N)=C(N)/C(C#N)=C/c1ccc(O)cc1 shows residual activity at minimum 90%?
Satisfied

Would you say O=C(Nc1cccc(Nc2nccc(Nc3cccc(C(F)(F)F)c3)n2)c1)C1CC1 shows residual activity at minimum 90%?
Satisfied

Would you say CCN(CC)CCNC(=O)c1c(C)[nH]c(/C=C2\C(=O)Nc3ccc(Cl)cc32)c1C shows residual activity at minimum 90%?
Not satisfied

Would you say Nc1cccc(-c2cc3c(Oc4cccc(O)c4)ncnc3[nH]2)c1 shows residual activity at minimum 90%?
Satisfied

Would you say COc1ccc(COc2ccc(Cc3cnc(N)nc3N)cc2OC)cc1 shows residual activity at minimum 90%?
Not satisfied

Would you say CCCC(=O)Oc1ccc2[nH]c(C(=O)c3cc4ccccc4[nH]3)cc2c1 shows residual activity at minimum 90%?
Satisfied

Would you say CCC(=O)Nc1ccc2ncnc(Nc3cccc(Br)c3)c2c1 shows residual activity at minimum 90%?
Not satisfied

Would you say CC(=O)c1ccc(N2CCOCC2)cc1O shows residual activity at minimum 90%?
Satisfied

----------
target: UniProtKB Q9NQU5; experiment: radiometric filter-binding kinase assay, Kinase HotSpot; conditions: compound 0.5 µM; ATP 10 µM
Sequence (Q9NQU5 whole entry, looked up): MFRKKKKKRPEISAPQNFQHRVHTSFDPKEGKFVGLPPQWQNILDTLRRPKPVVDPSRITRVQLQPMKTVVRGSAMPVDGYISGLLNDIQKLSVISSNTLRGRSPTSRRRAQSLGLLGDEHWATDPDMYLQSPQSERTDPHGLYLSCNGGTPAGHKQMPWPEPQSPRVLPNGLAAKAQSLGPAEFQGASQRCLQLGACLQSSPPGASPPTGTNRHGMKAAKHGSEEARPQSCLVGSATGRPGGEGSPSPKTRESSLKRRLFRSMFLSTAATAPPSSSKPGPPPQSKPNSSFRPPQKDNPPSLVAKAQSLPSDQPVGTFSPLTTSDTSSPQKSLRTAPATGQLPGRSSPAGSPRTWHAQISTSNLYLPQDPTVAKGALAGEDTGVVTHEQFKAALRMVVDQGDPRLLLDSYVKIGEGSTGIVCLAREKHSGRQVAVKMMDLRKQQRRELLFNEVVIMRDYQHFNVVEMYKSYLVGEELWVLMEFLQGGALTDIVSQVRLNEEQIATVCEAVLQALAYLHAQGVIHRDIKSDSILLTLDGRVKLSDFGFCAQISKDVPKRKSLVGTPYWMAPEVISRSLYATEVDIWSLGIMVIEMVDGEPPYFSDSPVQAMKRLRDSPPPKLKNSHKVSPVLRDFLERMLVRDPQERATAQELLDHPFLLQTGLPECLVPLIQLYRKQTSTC
property name: residual activity (%)
One number for each entry, in %.

# entry smiles, tested system, property name, reported measurement
data = [
    ("O=C1Nc2ccc(Cl)cc2/C1=C/c1cc(Cl)c(O)c(Cl)c1", "UniProtKB Q9NQU5", "residual activity", 97),
    ("CC[n+]1c(/C=C/N(C)c2ccccc2)n(-c2ccccc2)c2ccc(-c3nc4ccccc4s3)cc21", "UniProtKB Q9NQU5", "residual activity", 95.5),
]

Please state, for each entry, its recorded residual activity.
1. O=C1NC(=O)/C(=C/c2ccc3c(c2)OC(F)(F)O3)S1
2. CCN(CC)CCNC(=O)c1c(C)[nH]c(/C=C2\C(=O)Nc3ccc(F)cc32)c1C
3. O=C1NC(=O)c2c1c1c3ccccc3n3c1c1c2c2ccccc2n1C1CCC3O1

[103, 107, 85.4]

----------
biological target: PRKACG (human); assay: radiometric filter-binding kinase assay, Kinase HotSpot; details: compound 0.5 µM; ATP 10 µM
property name: residual activity (%)
One number for each entry, in %.

Worked set:
# molecule, residual activity, %
data = [
    ("O=C1NC(=O)C(c2cn(CCCn3ccnc3)c3ccccc23)=C1Nc1ccccc1", 117),
    ("CO[C@H]1CC2CC[C@@H](C)[C@@](O)(O2)C(=O)C(=O)N2CCCC[C@H]2C(=O)OC([C@H](C)C[C@@H]2CC[C@@H](O)[C@H](OC)C2)CC(=O)[C@H](C)/C=C(\\C)[C@@H](O)[C@@H](OC)C(=O)[C@H](C)C[C@H](C)/C=C/C=C/C=C/1C (stereo not given in full)", 113),
    ("CCCC(=O)Oc1ccc2[nH]c(C(=O)c3cc4ccccc4[nH]3)cc2c1", 99.8),
    ("c1ccc(-c2n[nH]cc2-c2ccnc3ccccc23)nc1", 92.9),
]

Please state, for each entry, its recorded residual activity.
1. CNc1cc2c(Nc3cccc(Br)c3)ncnc2cn1
2. CCOC(=O)c1c(C)[nH]c(/C=C2\C(=O)Nc3ccccc32)c1C
3. CCN(CC)CCNC(=O)c1c(C)[nH]c(/C=C2\C(=O)Nc3ccc(F)cc32)c1C
4. Nc1ccc2ncnc(NCCc3ccc(Oc4ccccc4)cc3)c2c1
5. N#CC(C#N)=C(N)/C(C#N)=C/c1ccc(O)cc1
6. Nc1ncnc2c1c(-c1ccc(Oc3ccccc3)cc1)cn2C1CCCC1

[115, 88.4, 109, 110, 96.8, 106]

----------
Kindly state residual activity for each of the entries shown.
target: YES1 (human); experiment: radiometric filter-binding kinase assay, Kinase HotSpot; details: compound 0.5 µM; ATP 10 µM
Numbers only, in %.

Worked set:
# entry smiles, property name, reported measurement
records = [
    ("CC#CC(=O)Nc1cc2c(Nc3ccc(F)c(Cl)c3)ncnc2cn1", "residual activity", 82.3),
    ("CCN(CC)CCNC(=O)c1c(C)[nH]c(/C=C2\\C(=O)Nc3ccc(F)cc32)c1C", "residual activity", 5.91),
    ("O=C1Nc2ccc(Cl)cc2/C1=C/c1cc(Cl)c(O)c(Cl)c1", "residual activity", 78.3),
]

// switching to the query compound
Find the recorded residual activity belonging to Cc1[nH]c(/C=C2\C(=O)Nc3ccc(S(=O)(=O)N(C)c4cccc(Cl)c4)cc32)c(C)c1C(=O)N1CCN(C)CC1 and report it.
27

----------
Kindly state residual activity for each of the entries shown.
target: PIM1 (human); test: radiometric filter-binding kinase assay, Kinase HotSpot; details: compound 0.5 µM; ATP 10 µM
Give bare numbers, in %.

# entry smiles, unit tag, residual activity
data = [
    ("CC#CC(=O)Nc1cc2c(Nc3ccc(F)c(Cl)c3)ncnc2cn1", "%", 98.6),
]

Please state, for each entry, its recorded residual activity.
1. O=c1cc(N2CCOCC2)oc2c1ccc1ccccc12
2. CCOC(=O)c1c(C)[nH]c(/C=C2\C(=O)Nc3ccccc32)c1C
3. Cc1ccc(S(=O)(=O)/C=C/C#N)cc1
4. CNc1cc2c(Nc3cccc(Br)c3)ncnc2cn1

54.8
95.8
101
66.2
